# System: Influenza A/Victoria/361/11 (Vict11; A/H3N2)
# ASSAY_PROCEDURE: Influenza virus inhibition assay in Calu-3 cells, IAV H3N2
# Assay type: cell-based, influenza A virus
# REPORTED_CONDITIONS: Influenza A virus, H3N2, Calu-3, 72 h, read-out: IC50, IAV H3N2 (Vict11)
Counter-ions that a name gives are not always drawn.
MEASURED_ATTRIBUTE: IC50 (nM)

compound="CN(C)C(=O)COC(=O)Cc1ccc(OC(=O)c2ccc(NC(=N)N)cc2)cc1 [Camostat mesylate]" observed_measurement=50

----------
# MEASUREMENT_TARGET: TMPRSS13 (Homo sapiens, UniProt Q9BYE2)
# Construct: encoding the respective transmembrane serine protease per well
# Sequence (Q9BYE2 other isoform, or with tags, fused parts or gaps): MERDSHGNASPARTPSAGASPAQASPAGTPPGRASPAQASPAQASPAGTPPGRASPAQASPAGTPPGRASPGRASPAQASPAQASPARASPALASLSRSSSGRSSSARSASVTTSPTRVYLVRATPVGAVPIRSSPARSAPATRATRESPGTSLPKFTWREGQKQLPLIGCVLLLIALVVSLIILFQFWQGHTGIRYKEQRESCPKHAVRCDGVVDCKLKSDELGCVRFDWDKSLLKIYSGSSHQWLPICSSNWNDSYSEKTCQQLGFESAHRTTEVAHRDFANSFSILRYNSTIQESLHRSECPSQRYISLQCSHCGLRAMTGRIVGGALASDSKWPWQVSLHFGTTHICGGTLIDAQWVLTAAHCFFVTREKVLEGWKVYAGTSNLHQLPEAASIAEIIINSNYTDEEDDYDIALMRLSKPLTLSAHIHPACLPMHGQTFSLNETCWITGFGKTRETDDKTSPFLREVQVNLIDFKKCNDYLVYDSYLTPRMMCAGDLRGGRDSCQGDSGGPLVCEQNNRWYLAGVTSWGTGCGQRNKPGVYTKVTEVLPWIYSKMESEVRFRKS
# ASSAY_PROCEDURE: Cellular TMPRSS13 activity assay in transfected HEK293T cells
# Experimental: Twenty thousand HEK293T cells were seeded in a 96‐well flat bottom plate. […] Fluorescence intensity was recorded at an excitation wavelength of 380 nm and emission wavelength of 460 nm in a Synergy H1 microplate reader (BioTek) with Gen 5 3.04 software. […]
pIC50: −log10 of the molar value. Counter-ions that a name gives are not always drawn.
MEASURED_ATTRIBUTE: pIC50

compound="CN(C)C(=O)COC(=O)Cc1ccc(OC(=O)c2ccc(NC(=N)N)cc2)cc1 [Camostat mesylate]" measurement_target="TMPRSS13 (Homo sapiens, UniProt Q9BYE2)" measured_attribute=pIC50 observed_measurement=7.03
